# target system: Choline kinase alpha (Homo sapiens)
# assay comment: Inhibition of human Choline kinase alpha 1 incubated for 10 mins by liquid-scintillation counter analysis
# test parameters: read-out: IC50
Recorded log10 IC50, one value per entry.
Transform log10 | Measure IC50 | Unit µM

# smiles text, observed measurement
measured = [
    ("CN(c1ccccc1)c1cc[n+](Cc2ccc(SCCSc3ccc(C[n+]4ccc(N(C)c5ccccc5)c5ccccc54)cc3)cc2)c2ccccc12", 0.24),
    ("CN(c1ccc(Cl)cc1)c1cc[n+](Cc2ccc(SSc3ccc(C[n+]4ccc(N(C)c5ccc(Cl)cc5)c5ccccc54)cc3)cc2)c2ccccc12", -0.07),
]

Q: Look up log10 IC50 with Choline kinase alpha (Homo sapiens) for this molecule: c1cc2c(N3CCCCC3)nc[n+](Cc3ccc(SSc4ccc(C[n+]5cnc(N6CCCCC6)c6ccsc65)cc4)cc3)c2s1
Result: -0.28

Q: Similarly, c1cc2c(N3CCCCC3)cc[n+](Cc3ccc(SCCSc4ccc(C[n+]5ccc(N6CCCCC6)c6ccsc65)cc4)cc3)c2s1 ?
Result: 0.64

----------
# assay comment: Antiproliferative activity against human MCF-10A cells assessed as inhibition of cell growth incubated for 72 hrs by resazurin dye based assay
# Type: toxicity
property name: GI50 at 72 h
Kindly report the value followed by its unit.

# smiles text, observed measurement
records = [
    ("c1cc2c(s1)c(N1CCCCCC1)cc[n+]2Cc1ccc(SCCSc2ccc(C[n+]3ccc(N4CCCCCC4)c4sccc43)cc2)cc1", "2500 nM"),
]

Q: Which GI50 at 72 h is reported for this compound? Clc1ccc2c(N3CCCC3)cc[n+](Cc3ccc(SCCSc4ccc(C[n+]5ccc(N6CCCC6)c6ccc(Cl)cc65)cc4)cc3)c2c1
Result: 2600 nM

----------
# assay comment: Antiproliferative activity against human Astrocyte cells assessed as inhibition of cell growth incubated for 72 hrs by resazurin dye based assay
# Format: toxicity
property name: GI50 at 72 h (µM)
# number only, unit µM dropped from output

# smiles text, GI50 at 72 h [µM]
records = [
    ("c1cc2c(N3CCCCCC3)cc[n+](Cc3ccc(SCCSc4ccc(C[n+]5ccc(N6CCCCCC6)c6ccsc65)cc4)cc3)c2s1", 2.5),
    ("c1cc2c(s1)c(N1CCCCCC1)cc[n+]2Cc1ccc(SCCSc2ccc(C[n+]3ccc(N4CCCCCC4)c4sccc43)cc2)cc1", 4.4),
]

Turning to the following compound.
Q: Which GI50 at 72 h is reported for this compound? Clc1ccc2c(N3CCCC3)cc[n+](Cc3ccc(SCCSc4ccc(C[n+]5ccc(N6CCCC6)c6ccc(Cl)cc65)cc4)cc3)c2c1
Result: 5

----------
# target system: Choline kinase alpha (Homo sapiens, UniProt P35790)
# Sequence (P35790 whole entry): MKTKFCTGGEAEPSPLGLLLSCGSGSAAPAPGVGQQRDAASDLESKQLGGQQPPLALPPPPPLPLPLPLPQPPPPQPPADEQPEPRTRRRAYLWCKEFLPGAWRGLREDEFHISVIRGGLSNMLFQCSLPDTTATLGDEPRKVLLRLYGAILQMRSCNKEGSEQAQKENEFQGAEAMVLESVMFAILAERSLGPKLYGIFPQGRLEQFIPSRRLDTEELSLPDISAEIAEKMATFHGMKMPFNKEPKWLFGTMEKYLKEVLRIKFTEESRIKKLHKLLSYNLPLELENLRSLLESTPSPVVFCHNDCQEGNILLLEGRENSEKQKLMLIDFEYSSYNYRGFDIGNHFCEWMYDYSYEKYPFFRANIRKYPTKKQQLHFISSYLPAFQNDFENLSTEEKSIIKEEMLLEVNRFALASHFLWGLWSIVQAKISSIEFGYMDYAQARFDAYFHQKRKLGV
# assay comment: Inhibition of human Choline kinase alpha 1 incubated for 10 mins by liquid-scintillation counter analysis
# test parameters: read-out: IC50
pIC50: −log10 of the molar value.
Given measured pIC50, output t if it is greater than or equal to 6 and f if not.

Reference set (3 entries):
# smiles text, category
rows = [
    ("c1cc2c(s1)c(N1CCCC1)nc[n+]2Cc1ccc(SSc2ccc(C[n+]3cnc(N4CCCC4)c4sccc43)cc2)cc1", "t"),
    ("CN(c1ccccc1)c1nc[n+](Cc2ccc(SCCSc3ccc(C[n+]4cnc(N(C)c5ccccc5)c5sccc54)cc3)cc2)c2ccsc12", "f"),
    ("c1cc2c(s1)c(N1CCCCCC1)cc[n+]2Cc1ccc(SCCSc2ccc(C[n+]3ccc(N4CCCCCC4)c4sccc43)cc2)cc1", "t"),
]

API: the following record is the query input.
Q: In plain terms: is recorded pIC50 at least 6 for c1cc2c(N3CCCCCC3)nc[n+](Cc3ccc(SSc4ccc(C[n+]5cnc(N6CCCCCC6)c6ccsc65)cc4)cc3)c2s1 ?
Result: t
